target: EPHB2 (UniProt P29323); experiment: phosphorylation enrichment, bacterial display (enrichment ratio); higher = better substrate or ligand; peptides without Tyr show the background;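 further: 11-residue human phosphosite peptides and single-mutation variants displayed on the E. coli surface, counted by deep sequencing, each peptide's frequency after selection divided by its frequency in the unselected input library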;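 further: frequency after pTyr selection over input frequency; kinase dosed for 20-30% of maximal phosphorylation in three min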
Sequence (P29323 whole entry, looked up): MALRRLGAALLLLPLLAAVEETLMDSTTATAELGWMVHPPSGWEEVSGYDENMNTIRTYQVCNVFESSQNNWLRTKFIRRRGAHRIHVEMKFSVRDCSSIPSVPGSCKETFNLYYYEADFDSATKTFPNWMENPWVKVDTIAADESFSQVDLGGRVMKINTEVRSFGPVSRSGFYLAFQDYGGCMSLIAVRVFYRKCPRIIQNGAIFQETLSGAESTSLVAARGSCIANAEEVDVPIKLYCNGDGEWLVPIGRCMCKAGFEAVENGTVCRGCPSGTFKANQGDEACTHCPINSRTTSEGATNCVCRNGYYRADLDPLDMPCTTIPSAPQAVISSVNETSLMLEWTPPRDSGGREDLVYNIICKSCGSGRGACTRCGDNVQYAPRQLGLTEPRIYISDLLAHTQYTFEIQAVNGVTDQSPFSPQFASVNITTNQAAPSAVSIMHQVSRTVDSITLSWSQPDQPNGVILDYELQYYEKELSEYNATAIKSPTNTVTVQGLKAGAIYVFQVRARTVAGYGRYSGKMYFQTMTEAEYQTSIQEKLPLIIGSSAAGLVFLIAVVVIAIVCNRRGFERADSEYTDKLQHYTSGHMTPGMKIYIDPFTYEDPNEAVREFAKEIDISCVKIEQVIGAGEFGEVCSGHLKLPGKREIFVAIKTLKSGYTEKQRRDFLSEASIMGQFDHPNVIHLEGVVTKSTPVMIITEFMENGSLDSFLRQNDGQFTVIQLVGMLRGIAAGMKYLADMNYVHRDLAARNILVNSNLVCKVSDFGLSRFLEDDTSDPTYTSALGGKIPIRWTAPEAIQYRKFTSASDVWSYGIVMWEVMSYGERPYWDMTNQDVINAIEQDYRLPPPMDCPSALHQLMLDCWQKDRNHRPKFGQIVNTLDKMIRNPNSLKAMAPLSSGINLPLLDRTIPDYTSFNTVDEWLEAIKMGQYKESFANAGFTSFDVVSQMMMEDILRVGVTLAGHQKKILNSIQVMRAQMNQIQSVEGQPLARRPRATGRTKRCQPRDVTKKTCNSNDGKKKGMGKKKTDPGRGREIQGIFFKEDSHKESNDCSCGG
recorded metric: phosphorylation enrichment
# print the numeric value only

Give the measured phosphorylation enrichment of QDEHGYISLCF [HSPB1_Y133_R136L] .
1.22

And then EPFEVYRIVPE [IRF8_Y110_K108E_YF] , what is it?
0.72

Further, for PSTFRYERGSR [INPPL1_Y663_P659S_YF] ?
0.47

Could you do the same for PTTKTYFPQFD [HBA1_Y43_H46Q] , please?
0.58

Try this sequence next: ISSLRYELLEE [TRPC6_Y896]
0.573

Same again, this time with GVRYIYTIDGS [DCX_Y105]
0.552

---

target: FGFR3 (UniProt P22607); experiment: phosphorylation enrichment, bacterial display (enrichment ratio); higher = better substrate or ligand; peptides without Tyr show the background
Sequence (P22607 whole entry, looked up): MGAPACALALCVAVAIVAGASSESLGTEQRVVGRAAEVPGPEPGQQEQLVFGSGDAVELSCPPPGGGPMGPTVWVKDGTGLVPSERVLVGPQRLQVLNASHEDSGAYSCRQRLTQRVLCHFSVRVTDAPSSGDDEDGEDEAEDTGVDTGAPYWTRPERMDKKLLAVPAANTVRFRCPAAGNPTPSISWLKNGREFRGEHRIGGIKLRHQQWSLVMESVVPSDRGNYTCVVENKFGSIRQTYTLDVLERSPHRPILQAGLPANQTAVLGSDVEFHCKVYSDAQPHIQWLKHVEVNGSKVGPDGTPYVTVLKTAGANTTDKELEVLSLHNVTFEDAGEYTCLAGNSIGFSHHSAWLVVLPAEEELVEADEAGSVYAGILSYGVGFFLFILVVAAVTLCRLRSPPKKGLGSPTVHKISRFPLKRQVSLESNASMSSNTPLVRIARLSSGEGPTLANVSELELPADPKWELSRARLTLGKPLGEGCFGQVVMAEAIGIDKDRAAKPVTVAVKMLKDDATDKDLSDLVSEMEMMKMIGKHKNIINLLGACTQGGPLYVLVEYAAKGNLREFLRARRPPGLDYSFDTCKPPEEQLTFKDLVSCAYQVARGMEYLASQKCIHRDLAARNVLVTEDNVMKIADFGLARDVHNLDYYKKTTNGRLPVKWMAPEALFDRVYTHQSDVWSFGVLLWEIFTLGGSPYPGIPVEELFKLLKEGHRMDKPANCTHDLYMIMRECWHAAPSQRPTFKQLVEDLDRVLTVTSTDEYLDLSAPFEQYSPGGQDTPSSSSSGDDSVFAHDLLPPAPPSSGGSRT
recorded metric: phosphorylation enrichment

Some solved cases for reference:
>  <residue codes>
WGTPEYDSVVA [MAP1A_Y1883_A1881P]

>  <target system>
FGFR3 (UniProt P22607)

>  <recorded metric>
phosphorylation enrichment

>  <measurement>
0.593

$$$$
>  <residue codes>
LPPREYVVVPS [CAPN1_Y494_G492R]

>  <target system>
FGFR3 (UniProt P22607)

>  <recorded metric>
phosphorylation enrichment

>  <measurement>
2.46

$$$$
>  <residue codes>
ESLSSYRESAK [APOC2_Y47_W48R]

>  <target system>
FGFR3 (UniProt P22607)

>  <recorded metric>
phosphorylation enrichment

>  <measurement>
0.456

$$$$
>  <residue codes>
LITTLYIGFLG [KCNQ1_Y267]

>  <target system>
FGFR3 (UniProt P22607)

>  <recorded metric>
phosphorylation enrichment

>  <measurement>
1.89

$$$$
>  <residue codes>
SCTFTCLLGDR [ETHE1_Y38_Y38C]

>  <target system>
FGFR3 (UniProt P22607)

>  <recorded metric>
phosphorylation enrichment

>  <measurement>
0.669

$$$$

Requested read-out phosphorylation enrichment, target or system FGFR3 (UniProt P22607), entry DDSNPYINVKL [MTHFD1_Y52_L51P]
0.884

// same read-out, input: WFKKFYDANFD [MAPRE2_Y158_YF]
0.6

Also check LQPNNYQFCGG [CSF1R_Y969]
1.09

Check ALAAPYVLFPS [CEFIP_Y1332_G1337S_YF] too.
1.83

Next up: CTTIHYMYMCN [TP53_Y234_N235M]
0.772

// query: DKVFTYIFIME [SCN4A_Y1074]
1.14

Another sequence: RNFVHYVQGLK [VWF_Y1400_R1399H]
0.52

Param item: QFFQSYFNNNF [ZNF236_Y644]
0.841

---

biological target: FGFR1 (UniProt P11362); assay: phosphorylation enrichment, bacterial display (enrichment ratio); higher = better substrate or ligand; peptides without Tyr show the background
Sequence (P11362 whole entry, looked up): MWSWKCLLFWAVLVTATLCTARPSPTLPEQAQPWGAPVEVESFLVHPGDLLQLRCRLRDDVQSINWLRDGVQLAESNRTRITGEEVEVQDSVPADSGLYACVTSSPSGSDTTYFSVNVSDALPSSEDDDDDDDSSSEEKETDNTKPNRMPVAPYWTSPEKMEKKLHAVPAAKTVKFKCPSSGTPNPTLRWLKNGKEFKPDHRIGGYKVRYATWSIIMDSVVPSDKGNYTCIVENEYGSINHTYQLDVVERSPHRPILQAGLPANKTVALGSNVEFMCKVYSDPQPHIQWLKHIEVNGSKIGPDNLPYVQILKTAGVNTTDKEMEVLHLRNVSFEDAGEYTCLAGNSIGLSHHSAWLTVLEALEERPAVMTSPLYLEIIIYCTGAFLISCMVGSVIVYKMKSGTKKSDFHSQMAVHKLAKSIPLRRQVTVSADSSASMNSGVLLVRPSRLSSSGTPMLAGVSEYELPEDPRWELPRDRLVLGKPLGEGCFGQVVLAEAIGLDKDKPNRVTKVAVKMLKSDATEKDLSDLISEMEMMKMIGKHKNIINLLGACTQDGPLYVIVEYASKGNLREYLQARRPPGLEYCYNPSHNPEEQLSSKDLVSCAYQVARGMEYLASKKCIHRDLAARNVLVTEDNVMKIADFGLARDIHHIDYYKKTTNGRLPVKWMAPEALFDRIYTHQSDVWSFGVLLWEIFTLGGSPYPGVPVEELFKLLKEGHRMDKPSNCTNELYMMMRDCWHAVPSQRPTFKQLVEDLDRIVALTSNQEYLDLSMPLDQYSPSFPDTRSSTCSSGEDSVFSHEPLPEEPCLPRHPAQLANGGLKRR
Label 0.0 if phosphorylation enrichment falls below 0.6; label 1.0 in every other case.

Example entries begin here.
>  <residue codes>
PYYTSYPPSPD [GDAP2_Y491]

>  <class assignment>
1.0

$$$$
>  <residue codes>
LGSNTYPFLLM [SAG_Y120_T125M]

>  <class assignment>
1.0

$$$$
>  <residue codes>
EDKFMYFEFPQ [PTEN_Y240]

>  <class assignment>
1.0

$$$$

Decide: phosphorylation enrichment of GGFTCYCDGKK [PROS1_Y266_YF] >= 0.6?
0.0

Repeat for the following sequence: DDSNPYINVKL [MTHFD1_Y52_L51P]
1.0

Same read-out for RKVLVYDKLNV [ROR2_Y624_N620K] ?
0.0

// next record WFISFYPQVIM [CTNS_Y143_S139F]
0.0
